Recorded pEC50, one value per entry.
- target or test system: T1, human LIGHT (TNFSF14), full length, membrane-bound (214E allele) (human, UniProt O43557 1-240)
- T1 construct: also called membrane LIGHT; human membrane LIGHT
- T1 sequence (O43557 whole entry K214E): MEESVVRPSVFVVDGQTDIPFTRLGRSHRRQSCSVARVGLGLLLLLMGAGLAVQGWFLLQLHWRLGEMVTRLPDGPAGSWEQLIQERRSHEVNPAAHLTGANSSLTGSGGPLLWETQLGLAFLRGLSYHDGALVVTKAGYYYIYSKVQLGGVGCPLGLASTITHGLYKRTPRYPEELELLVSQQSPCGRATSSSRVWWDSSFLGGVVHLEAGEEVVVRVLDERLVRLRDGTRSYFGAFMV
- protocol text: flow cytometry, EL4-LIGHT cells
pEC50: −log10 of the molar value.
measurement type: pEC50

# binder, recorded value
records = [
    ("3D12_var15 (antibody, human IgG4, V domains shown, human IgG4 (S241P, L248E, Kabat); also called 3D12 VL4VH3 (var15)) VH: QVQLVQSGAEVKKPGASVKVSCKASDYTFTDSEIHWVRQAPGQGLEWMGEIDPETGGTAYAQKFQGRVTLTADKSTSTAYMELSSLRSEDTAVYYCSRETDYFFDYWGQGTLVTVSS VL: DIQMTQSPSSLSASVGDRVTITCRASENIYGALNWYQQKPGKAPKLLIYGATNLAEGVPSRFSGSGSGRDYTLTISSLQPEDVATYYCQNVLSTPWTFGQGTKLEIKR", 9.66),
    ("3D12_var2 (antibody, human IgG4, V domains shown, human IgG4 (S241P, L248E, Kabat); also called 3D12 VL1VH2 (var2)) VH: QVQLVQSGAEVKKPGASVKVSCKASDYTFTDSEIHWVRQAPGQGLEWIGEIDPETGGTAYNQKFQGRVTLTADKSTSTAYMELSSLRSEDTAVYYCSRETDYFFDYWGQGTLVTVSS VL: DIQMTQSPSSLSASVGDRVTITCGASENIYGALNWYQRKQGKAPQLLIYGATNLADGVSSRFSGSGSGRDYTLTISSLQPEDVATYYCQNVLSTPWTFGQGTKLEIKR", 9.33),
    ("3D12_var14 (antibody, human IgG4, V domains shown, human IgG4 (S241P, L248E, Kabat); also called 3D12 VL4VH2 (var14)) VH: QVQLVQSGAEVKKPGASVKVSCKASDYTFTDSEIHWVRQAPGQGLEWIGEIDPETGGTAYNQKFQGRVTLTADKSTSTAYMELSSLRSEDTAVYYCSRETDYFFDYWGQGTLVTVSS VL: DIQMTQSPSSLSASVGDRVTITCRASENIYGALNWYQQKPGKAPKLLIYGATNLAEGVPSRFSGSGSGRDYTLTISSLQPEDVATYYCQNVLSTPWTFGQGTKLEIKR", 9.64),
]
